Reference source: patent US9205085B2

- system_tested: hERG channel (IKr) (Homo sapiens (Human), UniProt Q12809)
- Sequence (Q12809 whole entry): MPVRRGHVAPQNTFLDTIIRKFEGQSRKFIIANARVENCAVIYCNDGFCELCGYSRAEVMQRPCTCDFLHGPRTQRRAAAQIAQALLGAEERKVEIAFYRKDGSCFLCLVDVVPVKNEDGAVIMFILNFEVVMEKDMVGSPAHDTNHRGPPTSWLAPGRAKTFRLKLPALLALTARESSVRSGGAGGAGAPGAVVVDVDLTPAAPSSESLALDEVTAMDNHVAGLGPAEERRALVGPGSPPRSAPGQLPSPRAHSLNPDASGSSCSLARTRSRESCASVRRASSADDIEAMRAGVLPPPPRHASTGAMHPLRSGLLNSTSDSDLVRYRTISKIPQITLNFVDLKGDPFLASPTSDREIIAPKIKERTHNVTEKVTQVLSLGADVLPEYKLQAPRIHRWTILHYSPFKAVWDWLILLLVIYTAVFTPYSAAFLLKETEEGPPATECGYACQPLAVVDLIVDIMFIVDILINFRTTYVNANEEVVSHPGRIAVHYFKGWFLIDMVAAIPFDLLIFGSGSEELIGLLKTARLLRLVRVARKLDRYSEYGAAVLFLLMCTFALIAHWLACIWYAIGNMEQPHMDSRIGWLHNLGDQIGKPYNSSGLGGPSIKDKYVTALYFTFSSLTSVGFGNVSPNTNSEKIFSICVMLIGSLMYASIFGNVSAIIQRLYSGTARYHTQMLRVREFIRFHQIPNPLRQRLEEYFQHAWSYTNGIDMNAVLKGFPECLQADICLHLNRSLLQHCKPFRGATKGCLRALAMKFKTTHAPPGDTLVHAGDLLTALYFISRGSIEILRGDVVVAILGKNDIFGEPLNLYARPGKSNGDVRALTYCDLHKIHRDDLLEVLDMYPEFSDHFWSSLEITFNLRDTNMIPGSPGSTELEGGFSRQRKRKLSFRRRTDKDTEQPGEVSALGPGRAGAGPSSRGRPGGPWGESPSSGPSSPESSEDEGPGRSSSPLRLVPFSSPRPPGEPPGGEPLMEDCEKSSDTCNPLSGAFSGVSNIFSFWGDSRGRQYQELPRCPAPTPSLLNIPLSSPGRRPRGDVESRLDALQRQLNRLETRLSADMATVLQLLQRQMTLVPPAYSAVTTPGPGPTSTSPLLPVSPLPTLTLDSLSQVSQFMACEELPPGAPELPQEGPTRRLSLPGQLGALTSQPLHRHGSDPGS
- assay_comment: hERG channel current (IKr) inhibition
- Format: biochemical
- conditions_used: human; 1 μM; read-out: inhibition of hERG channel currents
quantity_name: inhibition at 1 µM (%)
Your answer should be a plain number; it is taken to be in %.

What measured inhibition at 1 µM goes with c1cnc(NCc2ccc(CNc3ncccn3)cc2)nc1 ?
0.2

----------
- system_tested: SDF-1/CXCR4 (Homo sapiens (Human), UniProt P61073)
- Sequence (P61073 whole entry): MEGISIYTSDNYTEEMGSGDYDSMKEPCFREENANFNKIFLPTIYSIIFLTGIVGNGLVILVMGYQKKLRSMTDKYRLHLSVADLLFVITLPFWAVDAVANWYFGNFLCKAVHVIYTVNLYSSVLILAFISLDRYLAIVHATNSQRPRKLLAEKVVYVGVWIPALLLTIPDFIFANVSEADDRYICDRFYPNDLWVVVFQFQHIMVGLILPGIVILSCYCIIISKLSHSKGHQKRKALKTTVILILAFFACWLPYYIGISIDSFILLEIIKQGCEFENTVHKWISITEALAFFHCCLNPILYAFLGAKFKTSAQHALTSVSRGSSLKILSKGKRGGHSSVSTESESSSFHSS
- assay_comment: IC50 vs SDF-1 (table of specific compounds)
- Type: binding
Reported IC50 values are given for each entry in this list.
Your answer should be a plain number; it is taken to be in nM.

What measured IC50 goes with c1ccc(OCc2ccc(CNc3ncccn3)cc2)nc1 ?
100

What measured IC50 goes with Clc1nc(Cl)nc(NCc2ccc(CNc3nc(Cl)nc(Cl)n3)cc2)n1 ?
10

What measured IC50 goes with c1cncc(NCc2ccc(CNc3cccnc3)cc2)c1 ?
10

What measured IC50 goes with c1ccc(OCc2ccc(CNc3ncccn3)cc2)cc1 ?
10

What measured IC50 goes with Cc1c(C)c(CNc2ccccc2)c(C)c(C)c1CNc1ccccc1 ?
10

Continuing:
What measured IC50 goes with c1ccc(SCc2ccc(CSc3ccccc3)cc2)cc1 ?
1000

What measured IC50 goes with COCc1ccc(CNc2ncccn2)cc1 ?
100

What measured IC50 goes with Cc1ccc(NCc2ccc(CNc3ccc(C)cc3)cc2)cc1 ?
10

----------
quantity_name: melting point

What measured melting point goes with c1ccc(NCCNCc2ccc(CNCCNc3ccccc3)cc2)cc1 [WZ8] ?
42 to 43 °C

What measured melting point goes with N=C(N)NCc1ccc(CNC(=N)N)cc1 [WZ5S] ?
278 to 281 °C (dec.)

Continuing:
What measured melting point goes with O=C(Nc1ccccc1)c1cc(C(=O)Nc2ccccc2)cc(C(=O)Nc2ccccc2)c1 [WZ20] ?
318 to 320 °C

What measured melting point goes with c1ccc(NCc2ccc(CNc3ccccc3)cc2)cc1 [WZ13] ?
126 to 127 °C

----------
- system_tested: SDF-1/CXCR4 (Homo sapiens (Human))
- assay_comment: IC50 vs SDF-1 (table of specific compounds)
- Type: binding
Reported IC50 values are given for each entry in this list.
Your answer should be a plain number; it is taken to be in nM.

Example results:
What measured IC50 goes with Clc1ccc(NCc2ccc(CNc3ncccn3)cc2)nc1 ?
10

What measured IC50 goes with COc1ccccc1NCc1ccc(CNc2ccccc2OC)cc1 ?
10

From here, focus on the item given below.
What measured IC50 goes with O=C(O)c1cccc(NCc2ccc(CNc3cccc(C(=O)O)c3)cc2)c1 ?
100
